Taken from ChEMBL document CHEMBL3124866.

For each of the compounds below, state its MIC.
System: Klebsiella pneumoniae
Assay: Antibacterial activity against beta-lactam-resistant Klebsiella pneumoniae ATCC 700603 after 24 hrs by broth microdilution assay
Type: functional
Settings: ATCC 700603, 24 h
Answers are plain numbers, in µg/mL.

* CCCCCCCCCCN(Cc1ccccc1)C(=O)[C@@H](N)CCCCN.O=C(O)C(F)(F)F.O=C(O)C(F)(F)F | 31
* CCCCCCCCN(Cc1c2ccccc2c(Cl)c2ccccc12)C(=O)[C@@H](N)CCCCN.O=C(O)C(F)(F)F.O=C(O)C(F)(F)F | 4.3
* CCCCN(Cc1c2ccccc2c(Cl)c2ccccc12)C(=O)[C@@H](N)CCCCN.O=C(O)C(F)(F)F.O=C(O)C(F)(F)F | 17

For each of the compounds below, note its MIC.
1. CCCCCCCCCCCCCCN(Cc1ccccc1)C(=O)[C@@H](N)CCCCN.O=C(O)C(F)(F)F.O=C(O)C(F)(F)F
2. CCN(Cc1c2ccccc2c(Cl)c2ccccc12)C(=O)[C@@H](N)CCCCN.O=C(O)C(F)(F)F.O=C(O)C(F)(F)F
3. CCCCCCCCN(Cc1cccc2ccccc12)C(=O)[C@@H](N)CCCCN.O=C(O)C(F)(F)F.O=C(O)C(F)(F)F

1: 4; 2: 31; 3: 13
